# protocol description: in vivo
# conditions: mouse, in vivo
# Description: To investigate toxicity, healthy female nude mice were first administered a specific dose of either free BMN-673 or BMN-NPs ranging from 0.03 mg/kg to 1.25 mg/kg. The mice were monitored for weight-loss or other signs of distress, and if the dose was well tolerated, 4 additional mice were dosed and monitored (n=5). Toxicology studies were conducted in healthy female nude mice to characterize the safety of BMN-NPs in vivo. […] Body weight loss and overall animal health were closely monitored.

{"compound": "Cn1ncnc1[C@H]1c2n[nH]c(=O)c3cc(F)cc(c23)N[C@@H]1c1ccc(F)cc1 [BMN-673, talazoparib]", "MTD, mg/kg": 0.05}

----------
# protocol description: in vivo
# conditions: mouse, in vivo

{"test smiles": "Cn1ncnc1[C@H]1c2n[nH]c(=O)c3cc(F)cc(c23)N[C@@H]1c1ccc(F)cc1", "LD50 / mg/kg": 0.125}
